Note to self: these molecules have Ki reported for Adenosine receptor A3 (Homo sapiens, UniProt P0DMS8) in various publications.
metric: Ki

>>> assay_result("Cc1cc(-c2sc(NC(=O)N3CC[C@H](C(=O)O)C3)nc2-c2cccc(C#N)c2)cc(C)n1")
"200 nM"
>>> assay_result("Cc1cc(-c2c(-c3cccc(C#N)c3)nn3ccc(C(=O)N[C@H](C)C(C)(C)O)nc23)cc(C)n1")
"> 1000 nM"
>>> assay_result("COCCn1c(=O)n(C2CC2C)c(=O)c2c(C)c(CN3CCNC3=O)sc21 (single isomer, unassigned)")
"3700 nM"
>>> assay_result("Cc1c(Cn2nc[nH]c2=O)sc2c1c(=O)n(C1CC1)c(=O)n2CCOC(F)(F)F")
"> 50000 nM"
>>> assay_result("Cc1cc(-c2c(-c3cccc(C#N)c3)nn3ccc(C(=O)N[C@H](C)CO)nc23)cc(Cl)n1")
"> 1000 nM"
>>> assay_result("Nc1ccn2nc(-c3cccc(F)c3)c(Br)c2n1")
"> 1000 nM"
>>> assay_result("Cc1cc(-c2c(-c3cccc(C#N)c3)nn3ccc(C(=O)N[C@H]4CC[C@](C)(O)CC4)nc23)cc(C)n1")
"> 1000 nM"

###

pKi: −log10 of the molar value.
Note to self: these molecules have pKi reported for Adenosine receptor A3 (Homo sapiens) in various publications.
metric: pKi

>>> assay_result("Cc1cc(-c2sc(NC(=O)N3CCN4C(=O)CCCC4C3)nc2-c2cccc(C#N)c2)cc(C)n1 (stereo not shown)")
6.76
>>> assay_result("Cc1cc(-c2sc(NC(=O)N3CC4(C3)CC(C)(O)C4)nc2-c2cccc(C#N)c2)cc(C)n1")
6.52
>>> assay_result("Cc1cc(-c2sc(NC(=O)N3CC4(COC4)C3)nc2-c2cccc(C#N)c2)cc(C(C)C)n1")
6.27
>>> assay_result("Cc1cc(-c2sc(NC(=O)N3CC[C@@H]3C(C)(C)O)nc2-c2cccc(C#N)c2)cc(C)n1")
6.53
>>> assay_result("O=C(O)/C=C/c1c(-c2ccco2)nn2ccc(NCc3ccccc3)nc12")
5.21
>>> assay_result("Nc1nc(NCc2cccnc2)nc2sc(-c3ccco3)nc12")
7.74
>>> assay_result("Cc1cc(-c2c(-c3cccc(C#N)c3)nn3ccc(N4CCOCC4)nc23)cc(Cl)n1")
5.70
>>> assay_result("Cc1cc(-c2sc(NC(=O)N3CCC(C#N)(CO)CC3)nc2-c2cccc(C#N)c2)cc(C)n1")
6.57
>>> assay_result("Cc1cc(-c2sc(NC(=O)N3CCN[C@@H](C(F)(F)F)C3)nc2-c2cccc(C#N)c2)cc(C)n1")
6.06
>>> assay_result("Nc1ccn2nc(-c3ccco3)c(-c3ccncc3)c2n1")
5.68
>>> assay_result("Cc1cc(-c2sc(NC(=O)N3CC(=O)N[C@@H](C)C3)nc2-c2cccc(C#N)c2)cc(C)n1")
6.97
>>> assay_result("Cc1cc(-c2c(-c3cccc(C#N)c3)nn3ccc(N4CC5CCC(C4)O5)nc23)cc(Cl)n1")
5.63
>>> assay_result("Cc1cc(-c2c(-c3cccc(C#N)c3)nn3ccc(NCC4(O)CC4)nc23)cc(Cl)n1")
5.61
>>> assay_result("CC(=O)NCc1cc(-c2sc(NC(=O)N3CC4(COC4)C3)nc2-c2cccc(C#N)c2)cc(C)n1")
5.59
>>> assay_result("Cc1cc(-c2sc(NC(=O)N3CCN(C4COC4)CC3)nc2-c2cccc(C#N)c2)cc(Cl)n1")
5.89

###

Note to self: these compounds have pKi reported for Adenosine receptor A3 (Homo sapiens, UniProt P0DMS8) in various publications.
pKi: −log10 of the molar value.
metric: pKi

>>> assay_result("Nc1nc(NCc2cnccn2)nc2sc(-c3ccco3)nc12")
6.80
>>> assay_result("Cc1cc(-c2sc(NC(=O)N3CC4(COC4)C3)nc2-c2cccc(C#N)c2)cc(C(C)O)n1 (racemic)")
5.74
>>> assay_result("Cc1cc(-c2sc(NC(=O)N3CC4(COC4)C3)nc2-c2cccc(C#N)c2)c(F)c(C)n1")
6.43
>>> assay_result("Cc1cc(-c2sc(NC(=O)N3CC(C#N)(CO)C3)nc2-c2cccc(C#N)c2)cc(C)n1")
6.63
>>> assay_result("c1coc(-c2cc3nc(NCc4nccs4)ccn3n2)c1")
6.80
>>> assay_result("Cc1cc(-c2sc(NC(=O)N3CCN4C(=O)CCC4C3)nc2-c2cccc(C#N)c2)cc(C)n1 (stereo not shown)")
6.48
>>> assay_result("Cc1cc(-c2sc(NC(=O)N3CCOCC3)nc2-c2cccc(C#N)c2)cc(Cl)n1")
6.52
>>> assay_result("Cc1cc(-c2sc(NC(=O)N3CCNC[C@H]3CO)nc2-c2cccc(C#N)c2)cc(C)n1")
6.88
>>> assay_result("Cc1cc(-c2sc(NC(=O)N3CCC4(CC3)C(=O)N(C)C(=O)N4C)nc2-c2cccc(C#N)c2)cc(C)n1")
7.11
>>> assay_result("Brc1c(-c2ccco2)nn2ccc(NCc3ccccc3)nc12")
7.60

###

Note to self: these compounds have log10(Ki) reported for Adenosine receptor A3 (Homo sapiens) in various publications.
metric: log10(Ki) (log10 of the value in µM)

>>> assay_result("Cc1cc(-c2sc(NC(=O)N3CC(=O)N4CCCCC4C3)nc2-c2cccc(C#N)c2)cc(C)n1 (stereo not shown)")
-0.59
>>> assay_result("Cc1cc(-c2sc(NC(=O)N3CCN4CCOCC4C3)nc2-c2cccc(C#N)c2)cc(C)n1 (stereo not shown)")
-0.32
>>> assay_result("Cc1cc(-c2sc(NC(=O)N3CC4(CCOC4)C3)nc2-c2cccc(C#N)c2)cc(C)n1")
-0.18
>>> assay_result("N#Cc1cccc(-c2nc(NC(=O)N3CC4(COC4)C3)sc2-c2cc(CO)nc(C(F)(F)F)c2)c1")
-0.34
>>> assay_result("[2H]C([2H])([2H])c1cc(-c2sc(NC(=O)N3CC4(COC4)C3)nc2-c2cccc(C#N)c2)cc(C([2H])([2H])[2H])n1")
-0.25
>>> assay_result("Cc1cc(-c2sc(NC(=O)N3CCN(C)C(=O)C3)nc2-c2cccc(C#N)c2)cc(C)n1")
-0.47
>>> assay_result("CCn1c(=O)c2c(C)c(CN3CCNC3=O)sc2n(CCOC)c1=O")
1.04
>>> assay_result("Nc1nc(NCc2ccco2)nc2sc(-c3ccco3)nc12")
-2.33
>>> assay_result("Cc1cc(-c2sc(NC(=O)N3C[C@H]4COC[C@H]4C3)nc2-c2cccc(C#N)c2)cc(C)n1")
-0.49
>>> assay_result("Cc1cc(-c2sc(NC(=O)N3CCN[C@H](C(=O)O)C3)nc2-c2cccc(C#N)c2)cc(Cl)n1")
-0.03
>>> assay_result("CC(C)(C)OC(=O)N1CCC[C@@H]1CNc1ccn2nc(-c3ccco3)c(C#N)c2n1")
0.29

###

Note to self: these molecules have pKi reported for Adenosine receptor A3 (Homo sapiens) in various publications.
pKi: −log10 of the molar value.
metric: pKi

>>> assay_result("Cc1cc(-c2c(-c3cccc(C#N)c3)nn3ccc(C(=O)NCC4(O)COC4)nc23)cc(Cl)n1")
"< 6.00"
>>> assay_result("Cc1cc(-c2c(-c3cccc(C#N)c3)nn3ccc(C(=O)NC[C@H](O)CO)nc23)cc(Cl)n1")
"< 6.00"
>>> assay_result("CC(C)(O)CNC(=O)c1ccn2nc(-c3cccc(C#N)c3)c(-c3ccncn3)c2n1")
"< 6.00"
>>> assay_result("CCCNc1nc(N)c2nc(-c3ccco3)sc2n1")
7.46
>>> assay_result("Cc1cc(-c2c(-c3cccc(C#N)c3)nn3ccc(N[C@@H](C)[C@H](O)CO)nc23)cc(Cl)n1")
"< 6.00"
>>> assay_result("Cc1cc(-c2c(-c3cccc(C#N)c3)nn3ccc(C(=O)N[C@H]4CC[C@H](N)C4)nc23)cc(Cl)n1")
"< 6.00"
>>> assay_result("Cc1cc(-c2c(-c3cccc(C#N)c3)nn3ccc(NC45CC(C(=O)O)(C4)C5)nc23)cc(Cl)n1")
"< 6.00"
>>> assay_result("Cc1cc(-c2sc(NC(=O)N3CCN[C@H](C(F)(F)F)C3)nc2-c2cccc(C#N)c2)cc(C)n1")
6.24
>>> assay_result("NC(=O)c1c(-c2ccco2)nn2ccc(N3CCN(CCF)CC3)nc12")
"< 6.00"
>>> assay_result("Cc1cc(-c2c(-c3cccc(C#N)c3)nn3ccc(O[C@H]4CCNC4)nc23)cc(Cl)n1")
"< 6.00"
>>> assay_result("COC(=O)/C=C/c1c(-c2ccco2)nn2ccc(NCc3ccccc3)nc12")
7.17
>>> assay_result("CCn1nccc1-c1c(-c2cccc(C#N)c2)nn2ccc(C(=O)NCC(C)(C)O)nc12")
"< 6.00"
>>> assay_result("Cc1cc(-c2c(-c3cccc(C#N)c3)nn3ccc(C(=O)NCC4(O)CCNC4)nc23)cc(Cl)n1 (stereo not shown)")
"< 6.00"
>>> assay_result("Cc1cc(-c2c(-c3cccc(C#N)c3)nn3ccc(C(=O)NCC(C)(C)O)nc23)cc(C)n1")
"< 6.00"
>>> assay_result("CNC(=O)C1CCN(C(=O)Nc2nc(-c3cccc(C#N)c3)c(-c3cc(C)nc(C)c3)s2)CC1")
6.65
>>> assay_result("Cc1cc(-c2c(-c3cccc(C#N)c3C)nn3ccc(C(=O)N[C@@H](C)C(C)(C)O)nc23)cc(C)n1")
"< 6.00"
